Molecular target: T1, human RANKL (receptor activator of NF-κB ligand) (human, UniProt O14788 140-317, limits assumed)
T1 construct: also called hRANKL; hRANKL native trimer
T1 sequence: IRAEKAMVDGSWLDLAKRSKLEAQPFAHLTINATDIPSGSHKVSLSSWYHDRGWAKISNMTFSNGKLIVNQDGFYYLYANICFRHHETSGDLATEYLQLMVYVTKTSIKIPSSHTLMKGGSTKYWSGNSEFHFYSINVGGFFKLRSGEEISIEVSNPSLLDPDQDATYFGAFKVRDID
Assay: SPR (BIACORE), purified antibody, 37°C
Below is a list of entries, each paired with its recorded pKd value.
To interpret pKd, take it as minus log10 of a concentration measured in moles per litre.

# count of solved cases: 2
{"Binder": "H4H010P (antibody, V domains shown, Purified antibody from clone 2H12) VH: QVQLVESGGGVVQPGRSLRLSCAASGFTFSGYGMHWVRQAPGKGLDWVTVISYDGSNKHYADSVKGRFTISRDNSKNTLYLQMSSLGPEDTAVYYCAKSLSGTYWGYGMDVWGQGTTVTVS VL: DIQMTQSPSTLSASVGDRVTITCRASQNISSWLAWYQQKPGKAPKLLIYKASSLESGVPSRFSGSGSGTEFTLTVSSLQPDDFATYYCQQYNRYSWTFGQGTKVEIK", "Observed": 10.11}
{"Binder": "H4H002P (antibody, V domains shown, Purified antibody from clone 1F8) VH: QVQLVESGGGVVQPGRSLRLSCAASGFTFTGYGMHWVRQAPDKGLEWVAVISYDGTNKYYVDSVKGRFTISRDNSQNTLYLQMNSLRAEDTAVYYCAKCLSGTYWGYGMDVWGQGTTVTVS VL: DIQMTQSPSTLSASVGDRVTITCRASRSINSWLAWYQQKPGKAPKLLIYKASSLESGVPSRFSGSGSGTEFTLTISSLQPDDFASYYCQQYNNYSWTFGQGTKVEIK", "Observed": 10.27}

Exercise: Entry H4H009P (antibody, V domains shown, Purified antibody from clone 2H10) VH: QVQLVESGGGVVQPGRSLRLSCAASGFTFSGYGIHWVRQAPDKGLEWVAVISYDGTNKYYGDSVKGRFTISRDNTKNTLYLQMNSLRTEDTAVYYCAKSLSGTYWGYGMDVWGQGTTVTVS VL: DIQMTQSPSTLSASVGDRVTITCRASQNIGNWLAWYQQKPGKAPKLLIYKASSLQNGVPSRFSGSGSGTEFTLTISSLQPDDFATYYCQRYNSYSWTFGQGTKVEIK : reported pKd = ?
Solution: 10.61

Exercise: Note, next up: H4H007P (antibody, V domains shown, Purified antibody from clone 2E12) VH: QVQLVESGGGVVQPGRSLRLSCAASGFTFSGYGMHWVRQAPGMGLEWVAVISYDGINKYYADSVKGRFTISRDNSKNTLFLQMNSLRAEDTALYYCAKCLSGTYWGYGMDVWGQGTTVTVS VL: DIQMTQSPSTLSASVGDRVTITCRASQSISSWLAWYQLKPGKAPKLLIYKASSLESGVPSRFGGSGSGTEFTLTISSLQPDDFATYYCQHYNSYSWTFGQGTKVEIK
Solution: 10.24

Exercise: Note, next up: H4H006P (antibody, V domains shown, Purified antibody from clone 2E11) VH: QVQLVESGGGVVQPGRSLRLSCAASGFTFGGYGMHWVRQAPDKGLEWVAVISYDGNNKYYVDSVKGRFTISRDNSKNMLYLQMNSLRAEDTAVYYCAKCLSGTYWGYGMDGWGQGTTVTVS VL: DIQMTQSPSTLSASVGDRVTITCRASQSISNWLAWYQQKPGKAPKLLIYKASNLQSGVPSRFSGSGSGTEFTLTISSLQPDDFATYYCQQYNNYSWTFGQGTKVEIK
Solution: 10.36
